Reference source for all entries: patent US3976779A

ASSAY_DETAILS: in vivo
CONDITION_CONTEXT: iv, mouse, i.v., dosage at which 50% of the mice die, read-out: Acute Toxicity LD50 Mouse
RECORDED_METRIC: LD50 (mg/kg)
Quick note: give the figure in mg/kg, leave out the unit.

Problem: Requested field: LD50. Item: CC(C)(C)NCC(O)COc1cccc2[nH]c3c(c12)CCCC3 (centres unmarked)
Result: 7
